# Study Target: T1, human c-mpl (thrombopoietin receptor) on HU-03 cells and human platelets (human, UniProt P40238 26-635)
# T1 construct: whole, on cells; also called mpl receptor; TPO receptor
# T1 sequence (looked up): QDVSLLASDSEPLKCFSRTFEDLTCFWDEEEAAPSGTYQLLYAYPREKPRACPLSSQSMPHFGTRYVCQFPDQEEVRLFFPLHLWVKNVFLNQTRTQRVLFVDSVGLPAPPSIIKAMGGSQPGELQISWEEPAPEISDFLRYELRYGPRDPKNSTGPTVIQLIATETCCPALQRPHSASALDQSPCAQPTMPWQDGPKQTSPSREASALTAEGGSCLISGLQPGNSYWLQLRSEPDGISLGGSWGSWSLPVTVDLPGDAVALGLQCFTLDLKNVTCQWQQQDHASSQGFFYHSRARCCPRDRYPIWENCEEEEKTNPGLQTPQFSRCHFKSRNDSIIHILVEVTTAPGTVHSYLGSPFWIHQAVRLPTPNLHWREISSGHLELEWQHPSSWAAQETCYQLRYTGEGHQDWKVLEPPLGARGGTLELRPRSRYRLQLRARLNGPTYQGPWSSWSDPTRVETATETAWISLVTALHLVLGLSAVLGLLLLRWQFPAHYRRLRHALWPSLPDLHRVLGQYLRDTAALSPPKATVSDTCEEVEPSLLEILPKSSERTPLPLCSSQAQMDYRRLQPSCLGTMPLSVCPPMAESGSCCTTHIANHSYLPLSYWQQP
# Test Name: competition with 100 pM 125I-TPO for binding to HU-03 cells
pIC50: −log10 of the molar value.
Property Label: pIC50

* 12D5 IgG (antibody, V domains shown) VH: QVQLVESGGGLVKPGGSLRLSCAASGFTFSSHNMNWVRQAPGKGLEWVSSISSSSSYIYYADSVKGRFTISRDNAKNSLYLQMNSLRAEDTAVYYCARDRGSTGMDVWGRGTLVTVSS VL: DIVMTQSPSTLSASIGDRVTITCRASEGIYHWLAWYQQKPGKAPKLLIYKASSLASGAPSRFSGSGSGTDFTLTISSLQPDDFATYYCQQYSNYPLTFGGGTELEIKR | 8.00
